# Type: physicochemical
# measurement-conditions: stored at room temperature (21-25° C.), day 3
Reported Stability in Powder Concentrate (content by LCMSMS) values for the following molecules.
Numeric only. Scale: mg/g powder

>  <molecule>
Cc1c(C)c2c(c(C)c1O)CC[C@@](C)(CCC[C@H](C)CCC[C@H](C)CCCC(C)C)O2

>  <unit-info>
mg/g powder

>  <quantitative-readout>
4.69

$$$$
>  <molecule>
C=C(C)[C@@H]1CCC(C)=C[C@H]1c1c(O)cc(CCC)cc1O

>  <unit-info>
mg/g powder

>  <quantitative-readout>
0.048

$$$$
>  <molecule>
CCCCCc1cc(O)c2c(c1)OC(C)(CCC=C(C)C)C=C2 (stereo not shown)

>  <unit-info>
mg/g powder

>  <quantitative-readout>
0.073

$$$$

We next turn to a different molecule, shown below.
Value lookup for Stability in Powder Concentrate (content by LCMSMS); key = CCCc1cc(O)c2c(c1)OC(C)(C)[C@@H]1CCC(C)=C[C@@H]21 [THCV, delta-9-tetrahydrocannabivarin]
0.698

* * *

# experiment-description: Stability of cannabinoid and Vitamin E components of Beverage 2 (AB Red) stored at 8° C. and 21-25° C., LCMSMS over 570 days
# measurement-conditions: 21-25° C., 23 days
Rule: yes (1) for Stability of Cannabinoids in AB Red not less than 1 µg/mL, no (0) for anything less.

>  <compound>
CCCCCc1cc(O)c2c(c1)OC(C)(CCC=C(C)C)C=C2 (stereo not drawn)

>  <group>
no (0)

$$$$

Is Stability of Cannabinoids in AB Red for C=C(C)[C@@H]1CCC(C)=C[C@H]1c1c(O)cc(CCC)cc1O at or above 1 µg/mL?
no (0)

Now this one: C=C(C)[C@@H]1CCC(C)=C[C@H]1c1c(O)cc(CCCCC)c(C(=O)O)c1O
yes (1)

Now this one: CCCc1cc(O)c2c(c1)OC(C)(C)[C@@H]1CCC(C)=C[C@@H]21 [THCV, delta-9-tetrahydrocannabivarin]
yes (1)

Now this one: CCCCCc1cc(O)c2c(c1)OC1(C)CCC3C1C2C3(C)C (stereo not drawn)
no (0)

Now this one: CCCCCc1cc(O)c2c(c1)OC(C)(C)c1ccc(C)cc1-2
yes (1)

Now this one: CCCCCc1cc(O)c2c(c1)OC(C)(C)[C@@H]1CCC(C)=C[C@@H]21 [D9 THC, delta-9-tetrahydrocannabinol, reference compound]
yes (1)

Now this one: CCCCCc1cc(O)c(C/C=C(\C)CCC=C(C)C)c(O)c1
yes (1)

Now this one: CCCCCc1cc2c(c(O)c1C(=O)O)[C@@H]1C=C(C)CC[C@H]1C(C)(C)O2 [D9 THCA, delta-9-tetrahydrocannabinolic acid]
yes (1)

* * *

# experiment-description: Stability of cannabinoid and Vitamin E components of Beverage 2 (AB Red) stored at 8° C. and 21-25° C., LCMSMS over 570 days
# measurement-conditions: 8° C., 9 days
Cut-off 2 µg/mL on Stability of Cannabinoids in AB Red: below means T, at or above means F.

Consider the worked cases shown below.
>  <compound>
C=C(C)[C@@H]1CCC(C)=C[C@H]1c1c(O)cc(CCCCC)c(C(=O)O)c1O [CBDA, cannabidiolic acid]

>  <group>
T

$$$$
>  <compound>
CCCCCc1cc(O)c2c(c1)OC1(C)CCC3C1C2C3(C)C (stereo not drawn) [CBL, cannabicyclol]

>  <group>
T

$$$$
>  <compound>
CCCCCc1cc(O)c2c(c1)OC(C)(C)[C@@H]1CCC(C)=C[C@@H]21 [D9 THC, delta-9-tetrahydrocannabinol, reference compound]

>  <group>
F

$$$$

We next turn to a different compound, shown below.
Identify whether the compound CCCCCc1cc(O)c2c(c1)OC(C)(C)c1ccc(C)cc1-2 [CBN, cannabinol] records Stability of Cannabinoids in AB Red below 2 µg/mL.
F

* * *

# Assay type: physicochemical
# measurement-conditions: stored at room temperature (21-25° C.), day 15
Cut-off 0.7 mg/g powder on Stability in Powder Concentrate (content by LCMSMS): below means T, at or above means F.

Consider the worked cases shown below.
>  <compound>
C=C(C)[C@@H]1CCC(C)=C[C@H]1c1c(O)cc(CCC)cc1O

>  <group>
T

$$$$
>  <compound>
CCCCCc1cc(O)c2c(c1)OC(C)(C)c1ccc(C)cc1-2

>  <group>
T

$$$$
>  <compound>
Cc1c(C)c2c(c(C)c1OC(=O)CCC(=O)O)CC[C@@](C)(CCC[C@H](C)CCC[C@H](C)CCCC(C)C)O2 [α-Tocopheryl succinate]

>  <group>
F

$$$$

Identify whether the compound CCCCCc1cc(O)c2c(c1)OC1(C)CCC3C1C2C3(C)C (stereo not drawn) records Stability in Powder Concentrate (content by LCMSMS) below 0.7 mg/g powder.
T

Now this one: CCCCCc1cc2c(c(O)c1C(=O)O)[C@@H]1C=C(C)CC[C@H]1C(C)(C)O2 [D9 THCA, delta-9-tetrahydrocannabinolic acid]
T

* * *

Reported Stability in AB White, 21-25° C. (content by LCMSMS) values for the following molecules.
# experiment-description: Stability of cannabinoid and Vitamin E components of Beverage 1 (AB White) stored at 8° C. and 21-25° C., LCMSMS over 570 days
# Assay type: physicochemical
# measurement-conditions: beverage stored at 21-25° C., day 510
Numeric only. Scale: µg/mL

>  <molecule>
CCCCCc1cc(O)c2c(c1)OC1(C)CCC3C1C2C3(C)C (stereo not drawn) [CBL, cannabicyclol]

>  <unit-info>
µg/mL

>  <quantitative-readout>
0.503

$$$$
>  <molecule>
CCCCCc1cc(O)c2c(c1)OC(C)(CCC=C(C)C)C=C2 (stereo not drawn) [CBC, cannabichromene]

>  <unit-info>
µg/mL

>  <quantitative-readout>
0.293

$$$$
>  <molecule>
CCCCCc1cc(O)c2c(c1)OC(C)(C)c1ccc(C)cc1-2 [CBN, cannabinol]

>  <unit-info>
µg/mL

>  <quantitative-readout>
2.66

$$$$
>  <molecule>
CCCc1cc(O)c2c(c1)OC(C)(C)[C@@H]1CCC(C)=C[C@@H]21 [THCV, delta-9-tetrahydrocannabivarin]

>  <unit-info>
µg/mL

>  <quantitative-readout>
3.32

$$$$
>  <molecule>
CCCCCc1cc(O)c2c(c1)OC(C)(C)[C@@H]1CCC(C)=C[C@@H]21 [D9 THC, delta-9-tetrahydrocannabinol, reference compound]

>  <unit-info>
µg/mL

>  <quantitative-readout>
11.2

$$$$

Value lookup for Stability in AB White, 21-25° C. (content by LCMSMS); key = C=C(C)[C@@H]1CCC(C)=C[C@H]1c1c(O)cc(CCCCC)c(C(=O)O)c1O [CBDA, cannabidiolic acid]
1.66

Now this one: CCCCCc1cc2c(c(O)c1C(=O)O)[C@@H]1C=C(C)CC[C@H]1C(C)(C)O2 [D9 THCA, delta-9-tetrahydrocannabinolic acid]
0.903

Now this one: CCCCCc1cc(O)c(C/C=C(\C)CCC=C(C)C)c(O)c1 [CBG, cannabigerol]
4.51

Now this one: C=C(C)[C@@H]1CCC(C)=C[C@H]1c1c(O)cc(CCC)cc1O [CBDV, cannabidivarin]
0.139

* * *

Reported Stability in AB White, 8° C. (content by LCMSMS) values for the following compounds.
# experiment-description: Stability of cannabinoid and Vitamin E components of Beverage 1 (AB White) stored at 8° C. and 21-25° C., LCMSMS over 570 days
# Assay type: physicochemical
# measurement-conditions: beverage stored at 8° C., day 17
Numeric only. Scale: µg/mL

Answered cases to consult:
>  <compound>
CCCCCc1cc(O)c2c(c1)OC(C)(C)c1ccc(C)cc1-2

>  <unit-info>
µg/mL

>  <quantitative-readout>
2.82

$$$$
>  <compound>
C=C(C)[C@@H]1CCC(C)=C[C@H]1c1c(O)cc(CCC)cc1O

>  <unit-info>
µg/mL

>  <quantitative-readout>
0.146

$$$$
>  <compound>
C=C(C)[C@@H]1CCC(C)=C[C@H]1c1c(O)cc(CCCCC)cc1O [CBD, cannabidiol, reference compound]

>  <unit-info>
µg/mL

>  <quantitative-readout>
27.84

$$$$
>  <compound>
CCCCCc1cc(O)c(C/C=C(\C)CCC=C(C)C)c(O)c1

>  <unit-info>
µg/mL

>  <quantitative-readout>
4.78

$$$$
>  <compound>
CCCCCc1cc(O)c2c(c1)OC(C)(CCC=C(C)C)C=C2 (stereo not shown)

>  <unit-info>
µg/mL

>  <quantitative-readout>
0.315

$$$$
>  <compound>
CCCCCc1cc(O)c2c(c1)OC(C)(C)[C@@H]1CCC(C)=C[C@@H]21 [D9 THC, delta-9-tetrahydrocannabinol, reference compound]

>  <unit-info>
µg/mL

>  <quantitative-readout>
12.05

$$$$
>  <compound>
CCCc1cc(O)c2c(c1)OC(C)(C)[C@@H]1CCC(C)=C[C@@H]21 [THCV, delta-9-tetrahydrocannabivarin]

>  <unit-info>
µg/mL

>  <quantitative-readout>
3.61

$$$$
>  <compound>
C=C(C)[C@@H]1CCC(C)=C[C@H]1c1c(O)cc(CCCCC)c(C(=O)O)c1O

>  <unit-info>
µg/mL

>  <quantitative-readout>
1.73

$$$$
>  <compound>
CCCCCc1cc2c(c(O)c1C(=O)O)[C@@H]1C=C(C)CC[C@H]1C(C)(C)O2 [D9 THCA, delta-9-tetrahydrocannabinolic acid]

>  <unit-info>
µg/mL

>  <quantitative-readout>
0.951

$$$$

We next turn to a different compound, shown below.
Value lookup for Stability in AB White, 8° C. (content by LCMSMS); key = CCCCCc1cc(O)c2c(c1)OC1(C)CCC3C1C2C3(C)C (stereo not shown)
0.540
